# Tested on: HEK-293T
# measurementDescription: Multiplex assay against HEK293T
# Format: toxicity, cell-based
# conditionLabel: human, 48 h, 1 µM, compound concentration 1 uM, replicate 1
Consider the reported Population Mitotic Cells (%) of an entry and match it to a band in category 1 = under 70%, category 2 = from 70% up to 80%, category 3 = 80% and over

Reference set (10 entries):
> print(dat)
                                    compound  testedon  discretelabel
 1  C[C@@H]1CC(=O)Nc2cccc(-c3ccc4c(c3)c(-c3cnn(C)c3)nn4C)c2N1  HEK-293T     category 1
 2  COc1ccc2c(c1OCc1ccccc1)C[C@@H](C(=O)O)N(C(=O)C(c1ccccc1)c1ccccc1)C2 [OLODANRIGAN]  HEK-293T     category 2
 3  CCCCCCNC(=O)Nc1ccc(S(=O)(=O)Nc2ccc(CCNC[C@H](O)COc3ccc(O)cc3)cc2)cc1 [L-755507]  HEK-293T     category 3
 4  C=CCN1C[C@H](C(=O)N(CCCN(C)C)C(=O)NCC)C[C@@H]2c3cccc4[nH]cc(c34)C[C@H]21 [CABERGOLINE]  HEK-293T     category 3
 5      Nc1nc(-c2ccco2)c2cnn(Cc3ccccc3F)c2n1  HEK-293T     category 1
 6  S=C(NCCCc1c[nH]cn1)NCCCN(Cc1ccc(Cl)c(Cl)c1)c1ccc(Br)cn1  HEK-293T     category 1
 7  CC(C)(O)C(=O)N1CCN(c2ccc(C(F)(F)F)c(C3=C(c4c[nH]c5ccccc45)C(=O)NC3=O)c2)CC1  HEK-293T     category 2
 8  COc1cc2nc(N3CCN(C(=O)c4ccco4)CC3)nc(N)c2cc1OC.Cl [PRAZOSIN HYDROCHLORIDE]  HEK-293T     category 1
 9  CN1CCN2c3ccccc3Cc3ccccc3C2C1.Cl (configuration not stated) [MIANSERIN HYDROCHLORIDE]  HEK-293T     category 3
10  O=c1ccc2ccc(OCCCCN3CCN(c4cccc5sccc45)CC3)cc2[nH]1 [BREXPIPRAZOLE]  HEK-293T     category 1

Turning to the following compound.
Hi there! Could you help me figure out the category for CCCCC[C@H](O)/C=C/[C@H]1[C@H](O)CC(=O)[C@@H]1CCCCCCC(=O)O [ALPROSTADIL] please?
category 1

###

# Tested on: HEK-293T
# measurementDescription: Multiplex assay against HEK293T
# Assay type: toxicity, cell-based
# conditionLabel: human, 24 h, 10 µM, compound concentration 10 uM, replicate 1
The compounds listed here are annotated with their Population Hoechst High Intensity Objects (%).
// return numeric value only (unit: %, not printed)

Examples with their reported Population Hoechst High Intensity Objects (%) follow.
compound	measureUnit	measured
C[C@@H]1CC(=O)Nc2cccc(-c3ccc4c(c3)c(-c3cnn(C)c3)nn4C)c2N1	%	2
O=C(NCCNCC(O)COc1ccc(O)cc1)N1CCOCC1.O=C(NCCNCC(O)COc1ccc(O)cc1)N1CCOCC1.O=C(O)/C=C/C(=O)O (configuration not stated) [XAMOTEROL FUMARATE]	%	5
CN1CCN(c2ccc(Nc3c4ccccc4nc4ccccc34)cc2)CC1.Cl.Cl.O	%	2
CN1CCC(C(=O)c2cccc(NC(=O)c3c(F)cc(F)cc3F)n2)CC1	%	6
N[C@](CC1c2ccccc2Oc2ccccc21)(C(=O)O)[C@H]1C[C@@H]1C(=O)O	%	5
COc1ccc2c(c1OCc1ccccc1)C[C@@H](C(=O)O)N(C(=O)C(c1ccccc1)c1ccccc1)C2 [OLODANRIGAN]	%	6
CCCCCCNC(=O)Nc1ccc(S(=O)(=O)Nc2ccc(CCNC[C@H](O)COc3ccc(O)cc3)cc2)cc1 [L-755507]	%	14
COc1cc(OC2CCN(C(C)=O)CC2)ccc1C(=O)N1CCC(N2C(=O)OCc3ccccc32)CC1	%	3

API: value(readout= Population Hoechst High Intensity Objects (%), system= HEK-293T, query= O=C(O)CCC/C=C\CC1C(O)CC(O)C1/C=C/C(O)COc1cccc(Cl)c1 (configuration not stated) [CLOPROSTENOL] )
7

API: value(readout= Population Hoechst High Intensity Objects (%), system= HEK-293T, query= CC(C)(O)C(=O)N1CCN(c2ccc(C(F)(F)F)c(C3=C(c4c[nH]c5ccccc45)C(=O)NC3=O)c2)CC1 )
4

API: value(readout= Population Hoechst High Intensity Objects (%), system= HEK-293T, query= Cc1cc(=O)n(C)c2cc(N3C(=O)CC[C@H](NS(=O)(=O)CC(C)C)[C@H]3c3ccc(Cl)cc3)ccc12 )
9

API: value(readout= Population Hoechst High Intensity Objects (%), system= HEK-293T, query= Cc1cc(O)c(-c2ccc([C@@H](C)CN(C)C)cc2)c2c1[nH]c(=O)c1sccc12 )
36

API: value(readout= Population Hoechst High Intensity Objects (%), system= HEK-293T, query= Nc1nc(CC(=O)Nc2ccc(CCNC[C@H](O)c3ccccc3)cc2)cs1 [MIRABEGRON] )
4

API: value(readout= Population Hoechst High Intensity Objects (%), system= HEK-293T, query= CN(C)C(=O)Cn1cc(-c2ccc(-c3nnc4ccccn34)cc2)cn1 )
4

API: value(readout= Population Hoechst High Intensity Objects (%), system= HEK-293T, query= Cc1nn(C)c2nc(NNC(=O)Nc3cc(Cl)nc(Cl)c3)cc(C(C)C)c12 )
5

API: value(readout= Population Hoechst High Intensity Objects (%), system= HEK-293T, query= CCCCC[C@H](O)/C=C/[C@H]1[C@H](O)CC(=O)[C@@H]1CCCCCCC(=O)O [ALPROSTADIL] )
2

API: value(readout= Population Hoechst High Intensity Objects (%), system= HEK-293T, query= CSc1nc(NC2CCCC2)c([N+](=O)[O-])c(NC2CCCC2)n1 [GS-39783] )
5

###

# System: U2OS
# measurementDescription: Multiplex assay against U2OS
# Assay type: toxicity, cell-based
# conditionLabel: human, 12 h, 10 µM, compound concentration 10 uM, replicate 2
The compounds listed here are annotated with their Population Fragmented Nuclei (%).

Examples with their reported Population Fragmented Nuclei (%) follow.
> print(dat)
                                   compound  measured
1          COc1ccc2[nH]c(I)c(CCNC(C)=O)c2c1       41%
2  Cl.Cl.OCCOCCN1CCN(C(c2ccccc2)c2ccc(Cl)cc2)CC1 (stereo not given) [HYDROXYZINE HYDROCHLORIDE]       26%
3  Cc1ccc(OCC(O)C(C)NC(C)C)c2c1CCC2.Cl (stereo not given)       11%
4  O=c1ccc2ccc(OCCCCN3CCN(c4cccc5sccc45)CC3)cc2[nH]1       21%

# evaluate next
Could you tell me which Population Fragmented Nuclei (%) is on file for Cc1sc2c(c1C)C(c1ccc(Cl)cc1)=N[C@H](CC(=O)OC(C)(C)C)c1nnc(C)n1-2 ?
22%

###

# Tested on: Fibroblast
# measurementDescription: Multiplex assay against human fibroblast
# Assay type: toxicity, cell-based
# conditionLabel: 48 h, 10 µM, compound concentration 10 uM, replicate 2
Short version: Population Membrane Permeable-Phenotype (%) at least 6% is fulfilled, less is not fulfilled.

Reference set (5 entries):
compound	discreteLabel
CN(C)C(=O)Cn1cc(-c2ccc(-c3nnc4ccccn34)cc2)cn1	fulfilled
CC(C)(C)c1ccc(CSc2cnn(C(C)(C)C)c(=O)c2Cl)cc1	fulfilled
Cc1c(Cc2ccc3ccccc3n2)c2cc(F)ccc2n1CC(=O)O	not fulfilled
COc1ccc2[nH]c(I)c(CCNC(C)=O)c2c1	fulfilled
COc1cc(Nc2ncc3c(n2)-c2ccc(Cl)cc2C(c2c(F)cccc2OC)=NC3)ccc1C(=O)O	not fulfilled

State whether the measured Population Membrane Permeable-Phenotype (%) reaches 6%, counting equality as reaching it, for Cl.Cl.OCCOCCN1CCN(C(c2ccccc2)c2ccc(Cl)cc2)CC1 (stereo unspecified) [HYDROXYZINE HYDROCHLORIDE]
fulfilled

State whether the measured Population Membrane Permeable-Phenotype (%) reaches 6%, counting equality as reaching it, for CN1C[C@H](C(=O)N[C@]2(C)O[C@@]3(O)[C@@H]4CCCN4C(=O)[C@H](Cc4ccccc4)N3C2=O)C[C@@H]2c3cccc4[nH]cc(c34)C[C@H]21.CS(=O)(=O)O [DIHYDROERGOTAMINE MESYLATE]
fulfilled

State whether the measured Population Membrane Permeable-Phenotype (%) reaches 6%, counting equality as reaching it, for O=c1nc2[nH]c3ccccc3nc-2c(=O)[nH]1
not fulfilled

State whether the measured Population Membrane Permeable-Phenotype (%) reaches 6%, counting equality as reaching it, for COc1cc2nc(N3CCN(C(=O)COc4c(OC)cccc4C(C)C)CC3)nc(N)c2cc1OC.Cl.Cl
fulfilled
